Tested on: EKVX NSCLC
test: NCI-60 one-dose screen, 48 h
protocolConditions: 10 µM
Compounds without any hit were thinned out: in the full panel of roughly 83,000, 20% have a hit. Active and inactive are the calls of the source. Rule for the calls: active = growth percent below 10; inactive = the rest.
Returns: one label drawn from 1 for active, 0 for inactive

Query string: // param item: N#CN1CC[C@H](C(=O)Nc2ncc(-c3ccncc3)s2)C1 ; yields the recorded call
Result string: 1

Query string: What classification did COc1ccc2oc(=O)cc(C(c3ccc[nH]3)c3ccc[nH]3)c2c1 end up with in this test?
Result string: 0

Query string: // return assay outcome for Oc1[nH]c2ccccc2c1/C=c1/cc2c(c(-c3ccc(C(F)(F)F)cc3)n1)=Nc1ccccc1-2
Result string: 0

Query string: // outcome(item) with item = Cc1cc(C(C)(C)CC(C)(C)C)ccc1OCCOCC[N+](C)(C)Cc1ccccc1
Result string: 1

Query string: For Cc1ccc(S(=O)(=O)N2CCc3ccccc3CC2)cc1 , which call appears in the assay record?
Result string: 0

Query string: State the result this test recorded for CCC1(C)OC(=O)NC1=O (configuration not stated) .
Result string: 0

Query string: Record request — test call for CCOC(=O)c1c(C(F)(F)F)n([O-])c2ccc(OC)cc2[n+]1=O
Result string: 1

Query string: Please share the test call associated with Cc1nc2ccc(-n3c(-c4ccc(Cl)cc4)nc4ccccc4c3=O)cc2n1Cc1ccccc1 .
Result string: 0

Query string: For CCCCCCCCCCCCc1ccc(C(=O)/C=C/C(=O)O)cc1 , which call appears in the assay record?
Result string: 0

Query string: Please share the test call associated with CN(C)c1ccc2cc(-c3cc4c(oc3=O)-c3ccccc3OC4O)c(=O)oc2c1 (configuration not stated) .
Result string: 0

Query string: Look up the recorded call for O=S(=O)(NCCO)c1ccc(OCCOc2ccc(S(=O)(=O)NCCO)cc2)cc1 in this test.
Result string: 0

Query string: Status in this test for COc1ccc(Cn2cc3c(c2-c2cc(OC)c(OC)c(OC)c2)CCc2cnoc2-3)cc1N ?
Result string: 0

Query string: Returns: the outcome recorded for N#CN1CC[C@H](C(=O)Nc2ncc(-c3ccccc3)s2)C1 in this assay.
Result string: 1

Query string: How did this test come out for CC(C)c1[nH]nc2c(NCc3ccc(-c4ccccn4)cc3)nc(SCCN(C)C)nc12 ?
Result string: 1

Query string: Recorded call for CCCCCCN=C(N)CCCCCCCCCCC(N)=NCCCCCC ?
Result string: 0

Query string: Tell me the recorded outcome of this test for Cc1ccc2c3c(cccc13)-c1ccccc1C2=O .
Result string: 0

Query string: Status in this test for COc1ccc(COC(=O)CC(C)C)cc1 ?
Result string: 0

Query string: Tell me the recorded outcome of this test for O=[N+]([O-])c1ccc(-c2nc(-c3ccccc3)c(-c3ccccc3)n2-c2ccccc2)cc1 .
Result string: 0

Query string: Tell me the assay call for CCOC(=O)C(CCC1=NC(C)(C)CC(C)O1)C(=O)OCC (configuration not stated) please.
Result string: 0

Query string: In this assay, the call recorded for C(=C\c1nc2ccccc2s1)/c1ccc(N2CCOCC2)s1 was what?
Result string: 0

Query string: What call does the record list for CC1(C)CCc2cc(-c3ccn(S(=O)(=O)c4ccc(Cl)cc4)n3)ccc2O1 ?
Result string: 0

Query string: Test call for this molecule, please: O=C(CSc1nnc(-c2ccc(Cl)cc2)o1)c1ccccc1
Result string: 0
